Recorded values, source patent US20170342144A1.

Target: T1, human TGFβ3 (human, UniProt P10600 301-412)
T1 sequence: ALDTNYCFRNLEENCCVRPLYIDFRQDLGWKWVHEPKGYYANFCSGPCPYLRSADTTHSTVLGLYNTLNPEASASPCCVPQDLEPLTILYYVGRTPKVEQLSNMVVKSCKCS
Assay: Biacore off-rate vs wt GC1008
Please go through the items and note down their kd mutant/kd wt.
// no unit, no text: just the number

Qu. Read off the recorded kd mutant/kd wt for E74R (antibody, V domains shown, GC1008 IgG4 variant) VH: QVQLVQSGAEVKKPGSSVKVSCKASGYTFSSNVISWVRQAPGQGLEWMGGVIPIVDIANYAQRFKGRVTITADRSTSTTYMELSSLRSEDTAVYYCASTLGLVLDAMDYWGQGTLVTVSS VL: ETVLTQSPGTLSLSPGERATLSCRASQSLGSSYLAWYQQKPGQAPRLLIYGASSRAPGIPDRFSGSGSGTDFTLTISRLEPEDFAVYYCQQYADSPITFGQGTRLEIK
Ans. 0.7

Qu. Read off the recorded kd mutant/kd wt for V55F (antibody, V domains shown, GC1008 IgG4 variant) VH: QVQLVQSGAEVKKPGSSVKVSCKASGYTFSSNVISWVRQAPGQGLEWMGGVIPIFDIANYAQRFKGRVTITADESTSTTYMELSSLRSEDTAVYYCASTLGLVLDAMDYWGQGTLVTVSS VL: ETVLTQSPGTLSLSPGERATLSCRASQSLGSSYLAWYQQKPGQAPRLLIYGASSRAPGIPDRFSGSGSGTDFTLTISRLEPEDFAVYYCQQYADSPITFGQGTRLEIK
Ans. 1.2
